# Test system: LG0567-F671-PDC complex spheroids viability
# assay.summary: Anticancer human tumor LG0567-F671-PDC patient-derived lung adenocarcinoma cell line growth inhibition [RAS]
# conditions: second compound 0.316 µM; first compound 3.16 µM; hits give low values
# From the text: RAS pathway inhibitors in Combinations in Complex Spheroids A high-throughput screen of multi-cell type tumor spheroids was designed to identify active combinations of RAS pathway inhibitors and targeted small molecules. Complex spheroids include a stromal component modeled by human endothelial cells (HUVEC) and fibroblasts modeled by human mesenchymal stem cells (MSCs). […] Compounds. […] If the clinical Cmax for an agent had not been determined, the highest concentration tested was 10 microM. […]
Catalogue of viability, T/C values
assay.endpoint: viability, T/C (%)

# molecule, experimental.target, endpoint.result
data = [
    ("CC(C)NCC(C(=O)N1CCN(c2ncnc3c2C(C)CC3O)CC1)c1ccc(Cl)cc1 (stereo not drawn) + C=CC(=O)N1CCN(c2nc(OCC3CCCN3C)nc3c(F)c(-c4nc(N)cc(C)c4C(F)(F)F)c(Cl)cc23)C(C)C1", "LG0567-F671-PDC complex spheroids viability", 9.16),
    ("NC1c2ccccc2OC12CCN(c1cnc3c(N4CCCc5ncccc54)n[nH]c3n1)CC2 (stereo not drawn) + C#Cc1c(F)ccc2cc(O)cc(-c3ncc4c(N5CC6CCC(C5)N6)nc(OCC56CCCN5CC(F)C6)nc4c3F)c12", "LG0567-F671-PDC complex spheroids viability", 3.75),
    ("CC(Nc1ccc2c(c1)OCCn1cc(N3C(=O)OCC3C(F)F)nc1-2)C(N)=O (stereo not drawn) + C=CC(=O)N1CCN(c2nc(OCC3CCCN3C)nc3c(F)c(-c4nc(N)cc(C)c4C(F)(F)F)c(Cl)cc23)C(C)C1", "LG0567-F671-PDC complex spheroids viability", 6.43),
]

---

# Test system: LG0567-F671-PDC complex spheroids viability
# assay.summary: Anticancer human tumor LG0567-F671-PDC cell line growth inhibition [RAS];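 further: spheroids exposed to compound for seven days before readout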
# conditions: second compound 0.00949 µM; first compound 0.00949 µM; hits give low values
assay.endpoint: viability, T/C (%)

# compound, endpoint.result
measured = [
    ("CCc1c2c(nc3ccc(O)cc13)-c1cc3c(c(=O)n1C2)COC(=O)[C@]3(O)CC + CCn1c(-c2cccnc2C(C)OC)c2c3cc(ccc31)N1CCOC(CC(NC(=O)C(C(C)C)N(C)C(=O)C3(F)CCN(C(=O)C#CC(C)(C)N(C)C)CC3)C(=O)N3CCCC(N3)C(=O)OCC(C)(C)C2)C1", 11.6),
    ("CC1(C)CCC(Nc2ncc(C(F)(F)F)c(-c3c[nH]c4c(P(C)(C)=O)c(C#N)ccc34)n2)CN1 (centres undefined) + CCn1c(-c2cc(N3CCN(C)CC3)cnc2C(C)OC)c2c3cc(ccc31)-c1csc(n1)CC(NC(=O)C1CC1C)C(=O)N1CCCC(N1)C(=O)OCC(C)(C)C2", 5.79),
    ("CC1(C)CCC(Nc2ncc(C(F)(F)F)c(-c3c[nH]c4c(P(C)(C)=O)c(C#N)ccc34)n2)CN1 (centres undefined) + CCn1c(-c2cccnc2C(C)OC)c2c3cc(ccc31)N1CCOC(CC(NC(=O)C(C(C)C)N(C)C(=O)C3(F)CCN(C(=O)C#CC(C)(C)N(C)C)CC3)C(=O)N3CCCC(N3)C(=O)OCC(C)(C)C2)C1", 12.1),
    ("CCc1c2c(nc3ccc(O)cc13)-c1cc3c(c(=O)n1C2)COC(=O)[C@]3(O)CC + CCn1c(-c2cc(N3CCN(C)CC3)cnc2C(C)OC)c2c3cc(ccc31)-c1csc(n1)CC(NC(=O)C1CC1C)C(=O)N1CCCC(N1)C(=O)OCC(C)(C)C2", 4.92),
]
